B1: CPEB3 Ribozyme (parent)
chain: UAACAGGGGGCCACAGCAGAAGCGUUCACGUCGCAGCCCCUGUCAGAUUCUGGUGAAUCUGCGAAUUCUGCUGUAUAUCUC

Variants of: B1
protocol details: self-cleavage, relative activity (ratio to wild type); higher = more cleavage; in vitro, sequencing
Would you kindly list self-cleavage for each of these variants?
Numbers only.

Each of the following entries comes with a recorded value; kindly state self-cleavage for each.
1. A5G A56U
2. G22U U60A
3. U25A A45C
4. G33A U67C

Response given:
1: 0.43; 2: 0.17; 3: 0.6; 4: 0.22

Give one value of self-cleavage per listed variant.
1. A2G C4U
2. U41C C44A

Response given:
[1.09, 0.39]

Each of the following entries comes with a recorded value; kindly state self-cleavage for each.
1. A28G C37U
2. G33U A65G

Response given:
1: 0.43; 2: 0.43

Below are some variants; for each one, tell me its self-cleavage.
1. G8U G53U
2. U1A U69C
3. C32A U69A
4. C68U A75U
5. C11G G46U
6. A5G C39U
7. C27U G63A
8. G24C A28U

Response given:
1: 0.12; 2: 0.61; 3: 0.18; 4: 1.02; 5: 0.1; 6: 0.67; 7: 0.22; 8: 0.28
